# assay: Pharmacokinetic studies in human, Compound I in plasma by LC/MS/MS
# Type: in vivo
# cond: human, plasma, iv, 150 mg/m2, Group 3, 150 mg/m^2 IV, Day 1, mean, n = 4
measure_name: Tmax (min)
Lab book: enter the figure in min, no units written.

For the molecule shown here, Cc1cnc(CNC(=O)c2c(=O)c3ccc(N4CCCN(C)CC4)nc3n3c2sc2ccccc23)cn1 , give the reported Tmax.
39

====

# assay: Pharmacokinetic studies in human, Compound I in plasma by LC/MS/MS
# Format: in vivo
# cond: human, plasma, iv, 475 mg/m2, Group 7, 475 mg/m^2 IV, Day 8, mean, n = 3; read-out: T1/2 (converted)
# Method: […] Levels of Compound I in patient's plasma were analyzed by liquid chromatography tandem mass spectrometry (LC/MS/MS) assay. […] The concentrations of Compound I in human plasma samples collected from subjects of as discussed above. Compound I concentrations in plasma samples were measured based on 9 levels of calibration standards from 5.00 to 5000 ng/mL, and 3 levels of QC at 15.0 ng/mL (low), 2500 ng/mL (mid), and 4000 ng/mL (high). […]
measure_name: half-life (h)
Lab book: enter the figure in h, no units written.

For the compound shown here, Cc1cnc(CNC(=O)c2c(=O)c3ccc(N4CCCN(C)CC4)nc3n3c2sc2ccccc23)cn1 [Compound I] , give the reported half-life.
73.8

====

# assay: Pharmacokinetic studies in human, Compound I in plasma by LC/MS/MS
# Assay type: in vivo
# cond: human, plasma, iv, 325 mg/m2, Group 8, 325 mg/m^2 IV, Day 15, mean, n = 4
measure_name: Cmax (ng/mL)
Lab book: enter the figure in ng/mL, no units written.

For the molecule shown here, Cc1cnc(CNC(=O)c2c(=O)c3ccc(N4CCCN(C)CC4)nc3n3c2sc2ccccc23)cn1 [Compound I] , give the reported Cmax.
21100

====

# assay: Pharmacokinetic studies in human, Compound I in plasma by LC/MS/MS
# Assay type: in vivo
# cond: human, plasma, iv, 325 mg/m2, Group 6, 325 mg/m^2 IV, Day 1, mean, n = 3
measure_name: Cmax (ng/mL)
Lab book: enter the figure in ng/mL, no units written.

For the compound shown here, Cc1cnc(CNC(=O)c2c(=O)c3ccc(N4CCCN(C)CC4)nc3n3c2sc2ccccc23)cn1 [Compound I] , give the reported Cmax.
1070

====

# System: SR
# assay: Alamar Blue cell viability assay, SR
# Format: cell-based
# cond: Homo sapiens, Leukemia
measure_name: pEC50
Reminder that pEC50 is minus the log10 of a molar concentration.

For the molecule shown here, Cc1cnc(CNC(=O)c2c(=O)c3ccc(N4CCCN(C)CC4)nc3n3c2sc2ccccc23)cn1 , give the reported pEC50.
8.30

====

# assay: Pharmacokinetic studies in human, Compound I in plasma by LC/MS/MS
# Assay type: in vivo
# cond: human, plasma, iv, 150 mg/m2, Group 3, 150 mg/m^2 IV, Day 8, mean, n = 4; read-out: T1/2 (converted)
measure_name: half-life (h)
Lab book: enter the figure in h, no units written.

For the compound shown here, Cc1cnc(CNC(=O)c2c(=O)c3ccc(N4CCCN(C)CC4)nc3n3c2sc2ccccc23)cn1 [Compound I] , give the reported half-life.
59.1

====

# assay: Pharmacokinetic studies in human, Compound I in plasma by LC/MS/MS
# Type: in vivo
# cond: human, plasma, iv, 250 mg/m2, Group 5, 250 mg/m^2 IV, Day 1, mean, n = 3; read-out: AUC∞
measure_name: AUC(0-inf) (ng·h/mL)
Lab book: enter the figure in ng·h/mL, no units written.

For the molecule shown here, Cc1cnc(CNC(=O)c2c(=O)c3ccc(N4CCCN(C)CC4)nc3n3c2sc2ccccc23)cn1 , give the reported AUC(0-inf).
20900

====

# assay: Pharmacokinetic studies in human, Compound I in plasma by LC/MS/MS
# Format: in vivo
# cond: human, plasma, iv, 50 mg/m2, Group 1, 50 mg/m^2 IV, Day 8, mean, n = 3
measure_name: Cmax
Your reply should be a number followed by the unit it is expressed in.

For the molecule shown here, Cc1cnc(CNC(=O)c2c(=O)c3ccc(N4CCCN(C)CC4)nc3n3c2sc2ccccc23)cn1 , give the reported Cmax.
642 ng/mL

====

# assay: Pharmacokinetic studies in human, Compound I in plasma by LC/MS/MS
# Type: in vivo
# cond: human, plasma, iv, 475 mg/m2, Group 7, 475 mg/m^2 IV, Day 1, mean, n = 3
measure_name: clearance (mL/min)
Lab book: enter the figure in mL/min, no units written.

For the molecule shown here, Cc1cnc(CNC(=O)c2c(=O)c3ccc(N4CCCN(C)CC4)nc3n3c2sc2ccccc23)cn1 , give the reported clearance.
418

====

# assay: Pharmacokinetic studies in human, Compound I in plasma by LC/MS/MS
# Assay type: in vivo
# cond: human, plasma, iv, 250 mg/m2, Group 5, 250 mg/m^2 IV, Day 1, mean, n = 3
# Description: […] Levels of Compound I in patient's plasma were analyzed by liquid chromatography tandem mass spectrometry (LC/MS/MS) assay. […] The concentrations of Compound I in human plasma samples collected from subjects of as discussed above. Compound I concentrations in plasma samples were measured based on 9 levels of calibration standards from 5.00 to 5000 ng/mL, and 3 levels of QC at 15.0 ng/mL (low), 2500 ng/mL (mid), and 4000 ng/mL (high). […]
measure_name: Vd

For the compound shown here, Cc1cnc(CNC(=O)c2c(=O)c3ccc(N4CCCN(C)CC4)nc3n3c2sc2ccccc23)cn1 [Compound I] , give the reported Vd.
1450 L

====

# assay: Pharmacokinetic studies in human, Compound I in plasma by LC/MS/MS
# Type: in vivo
# cond: human, plasma, intravenous, Groups 1-7, Day 8, range of group means; read-out: Total exposures (AUC∞)
measure_name: AUC(0-inf)

For the molecule shown here, Cc1cnc(CNC(=O)c2c(=O)c3ccc(N4CCCN(C)CC4)nc3n3c2sc2ccccc23)cn1 [Compound I] , give the reported AUC(0-inf).
9120 to 35400 ng·h/mL

====

# assay: Pharmacokinetic studies in human, Compound I in plasma by LC/MS/MS
# Assay type: in vivo
# cond: human, plasma, iv, 475 mg/m2, Group 7, 475 mg/m^2 IV, Day 8, mean, n = 3; read-out: AUC∞
measure_name: AUC(0-inf)
Your reply should be a number followed by the unit it is expressed in.

For the molecule shown here, Cc1cnc(CNC(=O)c2c(=O)c3ccc(N4CCCN(C)CC4)nc3n3c2sc2ccccc23)cn1 [Compound I] , give the reported AUC(0-inf).
35400 ng·h/mL

====

# assay: Pharmacokinetic studies in human, Compound I in plasma by LC/MS/MS
# Assay type: in vivo
# cond: human, plasma, iv, 650 mg/m2, Group 10, 650 mg/m^2 IV, Day 15, mean, n = 5
measure_name: Vd

For the compound shown here, Cc1cnc(CNC(=O)c2c(=O)c3ccc(N4CCCN(C)CC4)nc3n3c2sc2ccccc23)cn1 , give the reported Vd.
2620 L

====

# assay: Pharmacokinetic studies in human, Compound I in plasma by LC/MS/MS
# Type: in vivo
# cond: human, plasma, iv, 325 mg/m2, Group 8, 325 mg/m^2 IV, Day 1, mean, n = 3; read-out: T1/2 (converted)
measure_name: half-life (h)
Lab book: enter the figure in h, no units written.

For the compound shown here, Cc1cnc(CNC(=O)c2c(=O)c3ccc(N4CCCN(C)CC4)nc3n3c2sc2ccccc23)cn1 [Compound I] , give the reported half-life.
83.4

====

# Test system: Ramos
# assay: Alamar Blue cell viability assay, Ramos
# Assay type: cell-based
# cond: Homo sapiens, Lymphoma
measure_name: pEC50
Reminder that pEC50 is minus the log10 of a molar concentration.

For the molecule shown here, Cc1cnc(CNC(=O)c2c(=O)c3ccc(N4CCCN(C)CC4)nc3n3c2sc2ccccc23)cn1 [Compound I] , give the reported pEC50.
7.18

====

# assay: Pharmacokinetic studies in human, Compound I in plasma by LC/MS/MS
# Format: in vivo
# cond: human, plasma, iv, 650 mg/m2, Group 10, 650 mg/m^2 IV, Day 15, mean, n = 5; read-out: AUC∞
measure_name: AUC(0-inf) (µg·h/mL)
Lab book: enter the figure in µg·h/mL, no units written.

For the compound shown here, Cc1cnc(CNC(=O)c2c(=O)c3ccc(N4CCCN(C)CC4)nc3n3c2sc2ccccc23)cn1 , give the reported AUC(0-inf).
62.2

====

# assay: Pharmacokinetic studies in human, Compound I in plasma by LC/MS/MS
# Type: in vivo
# cond: human, plasma, iv, 200 mg/m2, Group 4, 200 mg/m^2 IV, Day 1, mean, n = 4
measure_name: Vd (L)
Lab book: enter the figure in L, no units written.

For the molecule shown here, Cc1cnc(CNC(=O)c2c(=O)c3ccc(N4CCCN(C)CC4)nc3n3c2sc2ccccc23)cn1 , give the reported Vd.
1700
